Taken from patent US20100069366A1.

Measured IC90, listed per entry for reference.
Test system: Staphylococcus aureus (ATCC29213)
Test: Microtitre plate assay, IC90 determination, STA 29213
Format: cell-based
Details: Staphylococcus aureus, ATCC29213, read-out: IC90 (μg/ml) STA 29213
experimental.readout: IC90 (µg/mL)

compound=N#Cc1ccc(/C(=C(\CCCCN2CCCCC2)c2ccccc2)c2cnc3ccccc3c2)cc1 obs_value=42
compound="COc1nc2ccc(-c3ccco3)cc2cc1C(/C(=C/CN(C)C)c1cccc2ccccc12)c1ccccc1 (stereo not shown)" obs_value=41.7
compound="CSc1nc2ccc(-c3ccccc3)cc2cc1C(/C(=C/CN(C)C)c1ccccc1)c1ccccc1 (stereo not shown)" obs_value=1.58
compound=Clc1ccc(/C(CCCCN2CCCCC2)=C(/c2ccc(Cl)cc2)c2cnc3ccccc3c2)cc1 obs_value=10.3

###

Tested on: M. Smegmatis ATCC607
Experiment: In-vitro anti-bacterial activity against strain M. smegmatis ATCC607
Format: cell-based
Conditions: Mycolicibacterium smegmatis, ATCC607, 48 h, read-out: M. smegmatis IC90 (μg/ml), 90% inhibitory concentration for bacterial growth, Alamar Blue fluorescence
Mark each entry met if its IC90 sits below 2 µg/mL, and not met for all others.

compound=N#Cc1ccc(/C(=C(\CCCCN2CCCCC2)c2ccccc2)c2cnc3ccccc3c2)cc1 class_name="not met"
compound=Clc1ccc(/C(=C(\CCCCN2CCCCC2)c2ccccc2)c2cnc3ccccc3c2)cc1 class_name=met
compound=c1ccc(/C(CCCCN2CCCCC2)=C(/c2ccccc2)c2cnc3ccccc3c2)cc1 class_name="not met"
compound="COc1nc2ccc(Br)cc2cc1C(/C(=C/CN(C)C)CCc1ccccc1)c1ccccc1 (centres unmarked)" class_name=met
compound=COc1ccc(/C(=C(\CCCCN2CCCCC2)c2ccc(Cl)cc2)c2cnc3ccccc3c2)cc1 class_name="not met"
compound="CSc1nc2ccc(-c3ccccc3)cc2cc1C(/C(=C/CN(C)C)c1ccccc1)c1ccccc1 (centres unmarked)" class_name=met
compound=COc1nc2ccc(Br)cc2cc1/C(=C(/CCN(C)C)c1ccccc1)c1ccc(Cl)cc1 class_name=met
compound=COc1nc2ccc(-c3ccco3)cc2cc1/C(=C(/CCN(C)C)c1cccc2ccccc12)c1ccccc1 class_name=met

###

System: Staphylococcus aureus (ATCC29213)
Assay: Microtitre plate assay, IC90 determination, STA 29213
Assay type: cell-based
Conditions: Staphylococcus aureus, ATCC29213, read-out: IC90 (μg/ml) STA 29213
experimental.readout: IC90 (µg/mL)

compound="CSc1nc2ccc(Br)cc2cc1/C(=C(/CCN(C)C)c1ccccc1)c1ccccc1 [Compound 2]" system_name="Staphylococcus aureus (ATCC29213)" result_unit=µg/mL obs_value=7.98
compound="COc1nc2ccc(-c3ccccc3)cc2cc1C(/C(=C/CN(C)C)c1ccccc1)c1ccccc1 (stereo not shown) [Compound 11]" system_name="Staphylococcus aureus (ATCC29213)" result_unit=µg/mL obs_value=1.53
compound="COc1nc2ccc(Br)cc2cc1C(/C(=C/C[N+](C)(C)C)c1cccc(F)c1)c1ccccc1 (stereo not shown) [Compound 23]" system_name="Staphylococcus aureus (ATCC29213)" result_unit=µg/mL obs_value=1.65
compound="COc1nc2ccc(Br)cc2cc1/C(=C(/CCN(C)C)c1ccccc1)c1ccc(Cl)cc1 [Compound 1]" system_name="Staphylococcus aureus (ATCC29213)" result_unit=µg/mL obs_value=8.27
compound="c1ccc(/C(CCCCN2CCCCC2)=C(/c2ccccc2)c2cnc3ccccc3c2)cc1 [Compound 49]" system_name="Staphylococcus aureus (ATCC29213)" result_unit=µg/mL obs_value=44.7
compound="N#Cc1ccc(/C(=C(\\CCCCN2CCCCC2)c2ccc(Cl)cc2)c2cnc3ccccc3c2)cc1 [Compound 55]" system_name="Staphylococcus aureus (ATCC29213)" result_unit=µg/mL obs_value=8.02
compound="CSc1nc2ccc(Br)cc2cc1/C(=C(\\CCN(C)C)c1ccccc1)c1ccccc1 [Compound 3]" system_name="Staphylococcus aureus (ATCC29213)" result_unit=µg/mL obs_value=7.98
compound="COc1ccc(/C(=C(\\CCCCN2CCCCC2)c2ccc(Cl)cc2)c2cnc3ccccc3c2)cc1 [Compound 58]" system_name="Staphylococcus aureus (ATCC29213)" result_unit=µg/mL obs_value=10.2
compound="CSc1nc2ccc(Br)cc2cc1C(/C(=C/CN(C)C)c1ccccc1)c1ccccc1 (stereo not shown) [Compound 4]" system_name="Staphylococcus aureus (ATCC29213)" result_unit=µg/mL obs_value=40
compound="COc1nc2ccc(-c3ccco3)cc2cc1/C(=C(/CCN(C)C)c1cccc2ccccc12)c1ccccc1 [Compound 22]" system_name="Staphylococcus aureus (ATCC29213)" result_unit=µg/mL obs_value=20.9
